Below is a list of entries, each paired with its recorded IC50 value.
Tested on: Colo 320/MDR-LRP human colonic adenocarcinoma cell line
Assay: Cytotoxicity (MTT) on resistant Colo 320 cells
Format: cell-based
Details: Homo sapiens, COLO 320; 24 h, MTT; read-out: Colo 320 (IC50 µM) Mean
API: value field is a number in µM; no unit string.

Use these answered entries as a reference point.
{"columns": ["compound", "readout units", "IC50"],
 "data": [
  ["N#CC[Se]C(=O)c1ccc(Br)cc1 [N3, Se-(Cyanomethyl) 4-Bromobenzoselenoate]", "µM", 4.37],
  ["CC(=O)C[Se]C(=O)c1cccs1", "µM", 1.47],
  ["N#CC[Se]C(=O)c1cccc(C(F)(F)F)c1", "µM", 5.22],
  ["CC(=O)C[Se]C(=O)c1cccc(C(F)(F)F)c1", "µM", 2.17],
  ["N#CC[Se]C(=O)c1ccccc1C(F)(F)F", "µM", 5.57],
  ["N#CC[Se]C(=O)c1cc(C(F)(F)F)cc(C(F)(F)F)c1", "µM", 3.78]
]}

Turning now to a further compound:
Input: Item under review: N#CC[Se]C(=O)c1cccc(F)c1 [N2, Se-(Cyanomethyl) 3-Fluorobenzoselenoate] . Reported IC50?
Output: 7.01
